B1: SPSB4 (parent)
chain: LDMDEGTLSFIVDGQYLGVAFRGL

Variants of: B1
Assay: protein stability index of a GFP-peptide fusion (GPS, HEK-293T) (PSI 1-6); higher = more stable;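 further: lentivirally expressed fusions sorted by FACS into six bins by GFP to DsRed ratio, PSI derived from sequencing read proportions per bin multiplied by bin number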
Conditions: c terminus: a fixed tail appended
Everything with protein stability index lower than 2 is F; everything else, including exactly 2, is T.

{"columns": ["SEQ_STRING", "CATEGORY"],
 "data": [
  ["LDMDEDTLSFIVDGQYLGVAFRGL", "F"],
  ["LDVDEGTLSFIVDGQYLGVAFRGL", "T"],
  ["RDMDEGTLSFIVDGQYLGVAFRGL", "T"],
  ["LDMDEGTLNFIVDGQYLGVAFRGL", "T"],
  ["LDMPEGTLSFIVDGQYLGVAFRGL", "F"],
  ["LDMDEGTLSFIVDGQDLGVAFRGL", "F"],
  ["LDMDEGTLSFIVDGQYLEVAFRGL", "T"],
  ["LDMDEGTLSFIVDGQYLGVAFRWL", "T"],
  ["LDMDEGTWSFIVDGQYLGVAFRGL", "T"],
  ["LDMDEGTLSFIVDGQYLGVAFRQL", "F"],
  ["LDMDEGTLSFIVDGYYLGVAFRGL", "T"],
  ["LDGDEGTLSFIVDGQYLGVAFRGL", "T"],
  ["LDMDEGTLSFIVDGQYLGVAFHGL", "T"],
  ["LDMDEGVLSFIVDGQYLGVAFRGL", "F"],
  ["LDMDEGTTSFIVDGQYLGVAFRGL", "F"],
  ["LDMDEGTLSFIVPGQYLGVAFRGL", "F"],
  ["LDMDEGTLSFIVDGQYLGVAFIGL", "T"],
  ["LDMDEGTLSFIVDGQYLGVAFRGH", "T"],
  ["LDMDEGTLSFIVDGQYLGVAFRGV", "T"],
  ["LDMDEGTLSFIVDGQYLGVAFRGD", "F"],
  ["LDMDEGTLSFIVGGQYLGVAFRGL", "T"],
  ["LDMDQGTLSFIVDGQYLGVAFRGL", "T"],
  ["LDMDEGTLSFIVDGVYLGVAFRGL", "T"],
  ["LDMDEGTLSFIVDGQYLGVAGRGL", "F"],
  ["LDMDEGTLSFIVDAQYLGVAFRGL", "T"],
  ["LDMDEGTLSFIVDGDYLGVAFRGL", "T"],
  ["LDMDEYTLSFIVDGQYLGVAFRGL", "T"],
  ["LDMDEGTLSFIVDGQELGVAFRGL", "T"],
  ["LDMDEGTLSFIVDGQYLDVAFRGL", "T"],
  ["LDMDEGNLSFIVDGQYLGVAFRGL", "F"],
  ["LDMDEGTLSFIVDGQYLGVEFRGL", "F"],
  ["SDMDEGTLSFIVDGQYLGVAFRGL", "F"],
  ["LDMDEGTLSFIVDGQYLGVRFRGL", "T"],
  ["LWMDEGTLSFIVDGQYLGVAFRGL", "T"],
  ["LDMDEGTHSFIVDGQYLGVAFRGL", "F"],
  ["LDMDCGTLSFIVDGQYLGVAFRGL", "T"],
  ["LDMDEGTLSFIVDGQYLGVAFRGY", "T"],
  ["LDMDEGTLSFIVDGQYLGVAMRGL", "F"],
  ["LDMDEGTLSFIVDGQYFGVAFRGL", "T"],
  ["LDMDEGTLSFIVDGQSLGVAFRGL", "F"],
  ["LDMDEGTLSFIVDGQYGGVAFRGL", "F"],
  ["LDMDEWTLSFIVDGQYLGVAFRGL", "T"]
]}
